# Target under test: human ether-à-go-go-related gene (hERG) potassium channel (human);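 also: peak tail current of the secondary pulse compared with the same well before compound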
# Sequence (Q12809 whole entry, looked up): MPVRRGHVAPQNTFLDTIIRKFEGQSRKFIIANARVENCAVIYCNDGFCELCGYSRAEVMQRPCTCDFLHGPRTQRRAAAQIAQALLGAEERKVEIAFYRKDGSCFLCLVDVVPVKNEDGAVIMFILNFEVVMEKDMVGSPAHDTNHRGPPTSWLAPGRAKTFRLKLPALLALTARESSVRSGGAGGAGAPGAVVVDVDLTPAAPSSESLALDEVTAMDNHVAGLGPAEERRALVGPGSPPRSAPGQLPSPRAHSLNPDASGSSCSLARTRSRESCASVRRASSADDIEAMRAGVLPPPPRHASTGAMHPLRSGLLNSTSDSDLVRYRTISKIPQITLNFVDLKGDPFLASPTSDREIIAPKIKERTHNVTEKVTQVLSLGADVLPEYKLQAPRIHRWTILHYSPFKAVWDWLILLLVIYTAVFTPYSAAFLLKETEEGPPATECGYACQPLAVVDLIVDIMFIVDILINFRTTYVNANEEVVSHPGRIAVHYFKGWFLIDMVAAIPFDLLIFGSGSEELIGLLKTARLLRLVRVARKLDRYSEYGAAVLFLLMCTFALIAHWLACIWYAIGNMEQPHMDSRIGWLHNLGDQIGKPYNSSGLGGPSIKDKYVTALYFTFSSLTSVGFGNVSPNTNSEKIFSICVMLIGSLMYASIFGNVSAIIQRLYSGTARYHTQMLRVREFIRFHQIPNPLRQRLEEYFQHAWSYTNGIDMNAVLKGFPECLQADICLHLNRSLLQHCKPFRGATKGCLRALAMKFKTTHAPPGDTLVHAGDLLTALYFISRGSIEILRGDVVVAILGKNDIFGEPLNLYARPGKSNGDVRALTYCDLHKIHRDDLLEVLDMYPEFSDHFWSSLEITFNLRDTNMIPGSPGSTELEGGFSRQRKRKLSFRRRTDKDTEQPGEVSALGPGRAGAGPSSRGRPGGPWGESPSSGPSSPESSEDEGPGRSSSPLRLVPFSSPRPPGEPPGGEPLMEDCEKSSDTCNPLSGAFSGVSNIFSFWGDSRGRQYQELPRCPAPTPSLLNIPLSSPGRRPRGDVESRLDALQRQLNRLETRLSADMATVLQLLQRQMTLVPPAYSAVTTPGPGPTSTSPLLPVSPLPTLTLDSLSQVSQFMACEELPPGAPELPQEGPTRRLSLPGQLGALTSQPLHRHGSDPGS
# Assay remarks: primary screen, population patch clamp on CHO cells stably expressing hERG; higher = less effect of the substance
In all, about 310,000 compounds went through this assay and about 14,000 (4.5%) showed an effect of 50% or more. The effect is printed as a negative number. Only a selection was taken, and strong results are over-represented in it overall.
Tick t if hERG current change (%, negative = inhibition) at 10uM is -10% or greater. Tick f if hERG current change (%, negative = inhibition) at 10uM is less than -10%.

IN: Given the entry Cc1ccc(C2=Nc3ccccc3N=C(c3ccc([N+](=O)[O-])cc3)C2)c(O)c1 , answer whether its hERG current change (%, negative = inhibition) at 10uM meets or surpasses -10%.
OUT: t

IN: Given the entry COc1ccc(-c2cc(=O)n(-c3nc4ccccc4[nH]3)[nH]2)cc1 , answer whether its hERG current change (%, negative = inhibition) at 10uM meets or surpasses -10%.
OUT: f

IN: Given the entry S=C(NCc1ccc2c(c1)OCO2)NC1CCN(Cc2ccccc2)CC1 , answer whether its hERG current change (%, negative = inhibition) at 10uM meets or surpasses -10%.
OUT: t

IN: Given the entry CC12CCC(C(=O)O)(c3nc4cc([N+](=O)[O-])ccc4nc31)C2(C)C (centres unmarked) , answer whether its hERG current change (%, negative = inhibition) at 10uM meets or surpasses -10%.
OUT: t

IN: Given the entry COc1ccc(C2C(C(=O)N3CCN(c4ccccn4)CC3)CCC(=O)N2c2cc(OC)c(OC)c(OC)c2)cc1 (centres unmarked) , answer whether its hERG current change (%, negative = inhibition) at 10uM meets or surpasses -10%.
OUT: t

IN: Given the entry CCCn1ncc(CN2CCC(N3CCC(C(=O)N4CCOCC4)CC3)CC2)c1C , answer whether its hERG current change (%, negative = inhibition) at 10uM meets or surpasses -10%.
OUT: t

IN: Given the entry CC(C)(C)C(=O)N1CCN(c2ccc([N+](=O)[O-])c(NCc3cccnc3)c2)CC1 , answer whether its hERG current change (%, negative = inhibition) at 10uM meets or surpasses -10%.
OUT: f

IN: Given the entry CCn1c(=O)c2c(cnn2C)c2ccccc21 , answer whether its hERG current change (%, negative = inhibition) at 10uM meets or surpasses -10%.
OUT: t

IN: Given the entry COC(=O)[C@@H]1C[C@@]2(O)[C@H](O)[C@H](O)[C@H](O)C[C@H]2N1Cc1ccc(C(F)(F)F)cc1 , answer whether its hERG current change (%, negative = inhibition) at 10uM meets or surpasses -10%.
OUT: t

IN: Given the entry Cc1ccccc1NC(=O)Nc1nc2ccc(S(C)(=O)=O)cc2s1 , answer whether its hERG current change (%, negative = inhibition) at 10uM meets or surpasses -10%.
OUT: t

IN: Given the entry CC1CCCCC1NC(=O)COn1nnc2ccc(Cl)cc21 (centres unmarked) , answer whether its hERG current change (%, negative = inhibition) at 10uM meets or surpasses -10%.
OUT: f

IN: Given the entry CCOC(=O)N1CCC(NC(=O)C2CCCN(Cc3nc(-c4ccc(CC)cc4)oc3C)C2)CC1 (centres unmarked) , answer whether its hERG current change (%, negative = inhibition) at 10uM meets or surpasses -10%.
OUT: f

IN: Given the entry CC1(C)CCCC2=C1CC1C(=O)N(Cc3cccnc3)C(=O)C1C2 (centres unmarked) , answer whether its hERG current change (%, negative = inhibition) at 10uM meets or surpasses -10%.
OUT: t

IN: Given the entry NC(=O)C1(N2CCCCC2)CCN(C(=O)c2ccc(C#CC3(O)CCCCC3)cc2)CC1 , answer whether its hERG current change (%, negative = inhibition) at 10uM meets or surpasses -10%.
OUT: t

IN: Given the entry Cc1c(Cl)cccc1NC(=O)NN1CCN(C)CC1 , answer whether its hERG current change (%, negative = inhibition) at 10uM meets or surpasses -10%.
OUT: t

IN: Given the entry COC(=O)c1c(C)oc(C)c(C(=O)OC)c1=O , answer whether its hERG current change (%, negative = inhibition) at 10uM meets or surpasses -10%.
OUT: t

IN: Given the entry Cl.O=c1cc(-c2ccccc2)[nH]n1-c1nc2ccccc2[nH]1 , answer whether its hERG current change (%, negative = inhibition) at 10uM meets or surpasses -10%.
OUT: t

IN: Given the entry CCOC(=O)N1CCC(NC(=O)C2CCCN(Cc3nc(-c4cccc(Cl)c4)oc3C)C2)CC1 (centres unmarked) , answer whether its hERG current change (%, negative = inhibition) at 10uM meets or surpasses -10%.
OUT: f

IN: Given the entry Cc1ccc(-c2nc(CN(C)C)cc(CN(C)C)c2O)cc1.Cl , answer whether its hERG current change (%, negative = inhibition) at 10uM meets or surpasses -10%.
OUT: f

IN: Given the entry O=C(COC(=O)C1(c2ccccc2F)CCCC1)NCc1ccc2c(c1)OCO2 , answer whether its hERG current change (%, negative = inhibition) at 10uM meets or surpasses -10%.
OUT: t

IN: Given the entry Cc1ccccc1C(=O)N1CCN(c2ccc([N+](=O)[O-])c(NCc3cccnc3)c2)CC1 , answer whether its hERG current change (%, negative = inhibition) at 10uM meets or surpasses -10%.
OUT: f

IN: Given the entry COC(=O)Cc1cc(=O)n(-c2nc3ccccc3[nH]2)[nH]1 , answer whether its hERG current change (%, negative = inhibition) at 10uM meets or surpasses -10%.
OUT: f

IN: Given the entry O=C(c1ccc(Cl)cc1)N1CCN(c2ccc([N+](=O)[O-])c(NCc3cccnc3)c2)CC1 , answer whether its hERG current change (%, negative = inhibition) at 10uM meets or surpasses -10%.
OUT: f

IN: Given the entry Cc1ccc(C(=O)N2CCN(c3ccc([N+](=O)[O-])c(NCc4cccnc4)c3)CC2)cc1 , answer whether its hERG current change (%, negative = inhibition) at 10uM meets or surpasses -10%.
OUT: f

IN: Given the entry Cc1ccc(-c2nc(CN3CCCCC3)cc(CN3CCCCC3)c2O)cc1.Cl , answer whether its hERG current change (%, negative = inhibition) at 10uM meets or surpasses -10%.
OUT: f

IN: Given the entry Cc1ccc(NC(=O)c2cc([N+](=O)[O-])ccc2NCc2cccnc2)cc1Cl , answer whether its hERG current change (%, negative = inhibition) at 10uM meets or surpasses -10%.
OUT: f

IN: Given the entry O=C(/C=C/c1ccccc1)Nc1nnc(SCC(=O)c2ccc3ccccc3c2)s1 , answer whether its hERG current change (%, negative = inhibition) at 10uM meets or surpasses -10%.
OUT: t

IN: Given the entry CCOC(=O)N1CCC(NC(=O)CS(=O)(=O)Cc2nc(-c3cccc(Cl)c3)oc2C)CC1 , answer whether its hERG current change (%, negative = inhibition) at 10uM meets or surpasses -10%.
OUT: f

IN: Given the entry CC(C)CCN(Cc1ccco1)S(=O)(=O)c1csc(C(N)=O)c1 , answer whether its hERG current change (%, negative = inhibition) at 10uM meets or surpasses -10%.
OUT: f

IN: Given the entry O=C(CC(c1ccccc1)c1cc(Cl)ccc1O)N1CCCC1 (centres unmarked) , answer whether its hERG current change (%, negative = inhibition) at 10uM meets or surpasses -10%.
OUT: f

IN: Given the entry NS(=O)(=O)c1ccc(CCNC(=O)CCS(=O)(=O)c2ccc(Br)cc2)cc1 , answer whether its hERG current change (%, negative = inhibition) at 10uM meets or surpasses -10%.
OUT: t

IN: Given the entry CCOC(=O)N1CCC(NC(=O)CS(=O)Cc2nc(-c3ccc(C)cc3)oc2C)CC1 (centres unmarked) , answer whether its hERG current change (%, negative = inhibition) at 10uM meets or surpasses -10%.
OUT: t

IN: Given the entry Cc1ccc(NC(=O)c2cc([N+](=O)[O-])ccc2NCc2cccnc2)cc1 , answer whether its hERG current change (%, negative = inhibition) at 10uM meets or surpasses -10%.
OUT: f

IN: Given the entry CCOC(=O)c1[nH]c(C)c(C(=O)OCC(=O)N(Cc2ccccc2)C(C)C)c1C , answer whether its hERG current change (%, negative = inhibition) at 10uM meets or surpasses -10%.
OUT: f

IN: Given the entry CC(=O)N1CCN(c2ccc([N+](=O)[O-])c(NCc3cccnc3)c2)CC1 , answer whether its hERG current change (%, negative = inhibition) at 10uM meets or surpasses -10%.
OUT: f

IN: Given the entry COC(=O)c1ccc(Cn2c(CN3CCOCC3)nc3ccccc3c2=O)o1 , answer whether its hERG current change (%, negative = inhibition) at 10uM meets or surpasses -10%.
OUT: t

IN: Given the entry O=C(c1ccccc1F)N1CCN(c2ccc([N+](=O)[O-])c(NCc3cccnc3)c2)CC1 , answer whether its hERG current change (%, negative = inhibition) at 10uM meets or surpasses -10%.
OUT: f

IN: Given the entry CCc1ccc(-c2nc(CN3CCCC(C(=O)O)C3)c(C)o2)cc1 (centres unmarked) , answer whether its hERG current change (%, negative = inhibition) at 10uM meets or surpasses -10%.
OUT: t
